Test system: MS2 coat protein
protocol_details: apparent KD of MS2 coat protein; designed switch direction (-1 OFF switch, 1 ON switch): -1; higher = weaker reporter binding
measurement_parameters: input ligand: none
Output condition met for apparent KD of MS2 coat protein not less than 200 nM; output condition not met otherwise.

Known results for sequences:
item_sequence: GAUUAACAUGAGGAUCACCCAUGUGAGGAUAUGGACUUGCCCACUUACCCAUUAGAGUCUAGAAGGCGCAUCUC [1986#2\9] (Eterna round: R97, puzzle: Exclusion 1)
qualitative_label: condition not met
--
item_sequence: UUUUACAUGCUGAGAUCCUACAUGAGGAUCACCCAUGUGGUCCGGAAAAUUUUGUCACCGGAUUUUGCUCGUCUUGU [salish99_S_TOV1_R5_102] (Eterna round: R97, puzzle: Sensor, turn-off variant 1)
qualitative_label: condition not met
--
item_sequence: AAAUUGGUAGAGGAUAUUGUACAGGAAACGGUGCGAGAAGGUUGCACAUGAGGAUCACCCAUGUUAAGUUGCGA [EX6 #46] (Eterna round: R97, puzzle: Exclusion 6)
qualitative_label: condition not met

Is it the case that ACAUGUCUUGUAGGAUAUAGUUGACAUGAGGAUCACCCAUGUUGAUUCAUGUCUAUGGAAACGGACUAGAAGGACGAGAAUAUG [Ex NG2 #17] (Eterna round: R96, puzzle: Exclusion NG 2) has apparent KD of MS2 coat protein reaching or exceeding 200 nM?
condition not met

Is it the case that AUGUACCGGUGAGGAUAUUUAUAAUAGAGCUUUAUGAUAUACAUGAGGAUCACCCAUGUUACUUUAAAGAAGGCAUCGGAUUAA [Mat - Exclusion NG 2 - Mod of JL - D91] (Eterna round: R96, puzzle: Exclusion NG 2) has apparent KD of MS2 coat protein reaching or exceeding 200 nM?
condition not met

Is it the case that UGCCGGGCGUGAUCGGAUGACAUGAGGAUCACCCAUGUGCCAGCACAUAAUACCGCUCGCGGUUUUUUGCUCGUCAU [Eternabot (Original) Solution 12] (Eterna round: R97, puzzle: Sensor, turn-off variant 1) has apparent KD of MS2 coat protein reaching or exceeding 200 nM?
condition met

Is it the case that UUUACAAGCUUUUGAUCCCACAUGAGGAUCACCCAUGUUGCUGCCGUGAGGUAGCAUUUAACAAAUGCUCGUCUUAU [JL TOV1 3.54] (Eterna round: R97, puzzle: Sensor, turn-off variant 1) has apparent KD of MS2 coat protein reaching or exceeding 200 nM?
condition met

Is it the case that AGCUAGUCAGGAUAUUCUAAUAAUUACAUGAGGAUCACCCAUGUGAAGAGACAAGGGUGUGAAGAAGGGACUAGCG [Omei Ex5 A1] (Eterna round: R97, puzzle: Exclusion 5) has apparent KD of MS2 coat protein reaching or exceeding 200 nM?
condition met

Is it the case that GGUCCGUGUGUGAGGAUAUGCUGGUCCUUGGAUCAGCAGAAGGCACAUGAGGAUCACCCAUGUGGUGUCGGACC [Mat - Exclusion 4 - Eli Mod - D33] (Eterna round: R97, puzzle: Brourd's mod of Exclusion 4) has apparent KD of MS2 coat protein reaching or exceeding 200 nM?
condition met

Each recorded value in this set is attributed to the supplement of paper PMC9170038.
